- study.target: 5HT6 human recombinant receptor (Homo sapiens)
- Construct: purchased Receptor Biology; host or cells: HEK-293 cell membranes
- Sequence (P50406 whole entry): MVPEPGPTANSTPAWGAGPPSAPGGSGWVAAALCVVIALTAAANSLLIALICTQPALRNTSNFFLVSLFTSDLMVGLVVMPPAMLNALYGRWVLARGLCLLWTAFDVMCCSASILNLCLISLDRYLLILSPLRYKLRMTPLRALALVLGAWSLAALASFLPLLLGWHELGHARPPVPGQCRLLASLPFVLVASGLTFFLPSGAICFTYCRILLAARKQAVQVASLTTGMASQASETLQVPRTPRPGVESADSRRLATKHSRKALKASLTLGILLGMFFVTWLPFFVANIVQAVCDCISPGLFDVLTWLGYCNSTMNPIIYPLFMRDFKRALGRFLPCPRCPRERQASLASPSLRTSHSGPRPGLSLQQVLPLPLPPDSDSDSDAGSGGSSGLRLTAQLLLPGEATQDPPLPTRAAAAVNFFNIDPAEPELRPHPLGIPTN
- assay.remarks: Binding with Serotonin Receptor 5HT6 ([3H]-LSD radioligand, HEK-293 cell membranes)
- details: compound 10 nM; [3H]-LSD 2.7 nM; HEK-293 membranes, 60 min, 37° C.
Criterion: inhibition at 0.01 µM meeting or surpassing 60%. Met: True. Not met: False.

molecular.string: CNCCc1c[nH]c2ccc(NS(=O)(=O)c3ccc4c(Cl)cccc4c3)cc12
answer.label: True
//
molecular.string: CNCCc1c[nH]c2ccc(NS(=O)(=O)c3cccc4ccccc34)cc12
answer.label: True
//
molecular.string: Cn1cc(CCN)c2cc(NS(=O)(=O)c3ccc4c(Cl)cccc4c3)ccc21
answer.label: False
//
molecular.string: CNCCc1cn(C)c2ccc(NS(=O)(=O)c3ccc4c(Cl)cccc4c3)cc12
answer.label: False
